Assay: in vivo
Assay type: in vivo, ICR mice
Settings: male, mouse, in vivo, iv; ICR mice, i.v. 1 mg/kg; read-out: MRTINF—obs
VALUE_KIND: MRT inf (min)
Give bare numbers, in min.

Short answer for COC[C@@H](NC(=O)C1CCCC(F)(F)C1)C(=O)N[C@H](Cc1ccccc1)C(=O)C(=O)NCc1nccs1 (stereo partly shown) [Compound 398] : MRT inf was 10.2

###

Target: recombinant SARS-CoV-2 M^pro (Severe acute respiratory syndrome coronavirus 2 (2019-nCoV) (SARS-CoV-2))
Assay: Inhibition of SARS-CoV-2 M^pro enzyme activity (fluorescent substrate assay)
Assay type: biochemical
Settings: inhibition of SARS-CoV-2 M^pro enzyme activity; values in nM; read-out: IC50
Response field label takes Met when IC50 is strictly below 30 nM and Not met in all other cases.

Solved entries:
INSERT INTO results (molecule, answer_label) VALUES
  ('COc1ccc(OCC(=O)N[C@H](C)C(=O)N[C@H](Cc2ccccc2)C(=O)C(=O)NCc2ccccn2)cc1', 'Met'),
  ('O=C(CNC(=O)C1CCC(F)(F)CC1)N[C@H](Cc1ccccc1Cl)C(=O)C(=O)NCc1ccccn1', 'Not met'),
  ('C[C@@H](NC(=O)c1cc(Cl)cc(OC(F)(F)F)c1)C(=O)N[C@H](Cc1ccccc1)C(=O)C(=O)NCc1nccs1', 'Met'),
  ('C[C@@H](NC(=O)c1ccn(-c2ccccc2)n1)C(=O)N[C@H](Cc1ccccc1)C(=O)C(=O)NCc1nccs1', 'Not met'),
  ('O=C(NCc1ccccn1)C(=O)[C@@H](Cc1ccccc1)NC(=O)[C@H]1CCCCN1C(=O)CCC1CCC(F)(F)CC1', 'Met');

Given O=C(NCc1ccccn1)C(=O)[C@@H](Cc1ccccc1)NC(=O)C1(NC(=O)c2cc(C(F)(F)F)[nH]n2)CCC1 , is recorded IC50 strictly lower than 30 nM? Met

Quick check: IC50 of O=C(CNC(=O)C1CCCCCC1)N[C@H](Cc1ccccc1)C(=O)C(=O)NCc1cscn1 under 30 nM? Met

###

Assay: In vivo pharmacokinetic properties in rats
Settings: SD rats, i.v. 1 mg/kg
Lab note: anything with AUCINF—obs at or over 2000 ng·h/mL counts as class 1; the rest go in class 0.

Example cases with answers are listed next.
INSERT INTO measurements (molecule, answer_label) VALUES
  ('COC[C@@H](NC(=O)C1CCC(F)(F)CC1)C(=O)N[C@H](Cc1ccccc1)C(=O)C(=O)NCc1nccs1', 'class 1'),
  ('C[C@@H](NC(=O)CC1CC(F)(F)C1)C(=O)N[C@H](Cc1ccccc1)C(=O)C(=O)NCc1nccs1', 'class 1');

Please indicate if the recorded AUCINF—obs for COC[C@@H](NC(=O)CC1CC(F)(F)C1)C(=O)N[C@H](Cc1ccccc1)C(=O)C(=O)NCc1nccs1 meets or exceeds 2000 ng·h/mL. class 1

For this molecule, is measured AUCINF—obs 2000 ng·h/mL or higher? C[C@@H](NC(=O)C1CCC(F)(F)CC1)C(=O)N[C@H](Cc1ccccc1)C(=O)C(=O)NCc1nccs1 class 0

Decide: AUCINF—obs of C[C@@H](NC(=O)C1CCC(F)(F)C1)C(=O)N[C@H](Cc1ccccc1)C(=O)C(=O)NCc1nccs1 (some centres unmarked) >= 2000 ng·h/mL? class 0

###

Target: recombinant SARS-CoV-2 M^pro (Severe acute respiratory syndrome coronavirus 2 (2019-nCoV) (SARS-CoV-2), UniProt P0DTD1)
Assay: Inhibition of SARS-CoV-2 M^pro enzyme activity (fluorescent substrate assay)
Assay type: biochemical
Conditions: inhibition of SARS-CoV-2 M^pro enzyme activity; values in nM; read-out: IC50
// assign t if IC50 falls strictly below 30 nM, else f (ties count as f)

Look over these answered cases.
INSERT INTO results (molecule, answer_label) VALUES
  ('CC1(C)[C@@H]2[C@@H](C(=O)N[C@H](Cc3ccccc3)C(=O)C(=O)NCc3ccccn3)N(C(=O)C3CCC(F)(F)CC3)C[C@@H]21 [Compound 262]', 'f'),
  ('C[C@@H](NC(=O)C1CCC(F)(F)CC1)C(=O)N[C@H](Cc1cccc(F)c1)C(=O)C(=O)NCc1ccccn1 [Compound 360]', 'f'),
  ('CC(C)(OCc1cc(F)cc(Cl)c1)C(=O)N[C@H](Cc1ccccc1)C(=O)C(=O)NCc1ccccn1 [Compound 19]', 'f'),
  ('O=C(NCc1nccs1)C(=O)[C@@H](Cc1ccccc1)NC(=O)[C@H]1CC(F)(F)CN1C(=O)C1CCCC(F)(F)C1 (stereo partly shown) [Compound 403]', 't'),
  ('C[C@@H](NC(=O)C1CCC(F)(F)C1)C(=O)N[C@H](Cc1ccccc1)C(=O)C(=O)NCc1nccs1 (stereo partly shown) [Compound 379]', 't'),
  ('C[C@@H](NC(=O)C(F)Oc1ccc(Cl)cc1Cl)C(=O)N[C@H](Cc1ccccc1)C(=O)C(=O)NCc1ccccn1 (stereo partly shown) [Compound 94]', 't');

Report whether reported IC50 is lower than 30 nM (strictly) for C[C@@H](NC(=O)c1ccc(Cl)c(Cl)c1)C(=O)N[C@H](Cc1ccccc1)C(=O)C(=O)NCc1ccccn1 [Compound 99] t

###

Consider the following molecules; for each one, report its MRT inf.
Experiment: in vivo
Details: male, Sprague-Dawley, rat, po, 10 mg/kg
One number for each entry, in h.

INSERT INTO results (molecule, value_kind, unit_name, number) VALUES
  ('O=C(CNC(=O)C1CC12CCC(F)(F)CC2)N[C@H](Cc1ccccc1)C(=O)C(=O)NCc1ccccn1 (stereo partly shown)', 'MRT inf', 'h', 7.47),
  ('COC[C@@H](NC(=O)C1CCC(F)(F)CC1)C(=O)N[C@H](Cc1ccccc1)C(=O)C(=O)NCc1nccs1', 'MRT inf', 'h', 7.63),
  ('O=C(CNC(=O)C1CCC(F)(F)CC1)N[C@H](Cc1ccccc1)C(=O)C(=O)NCc1ccccn1', 'MRT inf', 'h', 5.98);

Next item in the queue.
Memo: O=C(CC1CCC(F)(F)CC1)NCC(=O)N[C@H](Cc1ccccc1)C(=O)C(=O)NCc1ccccn1 , reported MRT inf: 5.95

###

Molecular target: recombinant SARS-CoV-2 M^pro (Severe acute respiratory syndrome coronavirus 2 (2019-nCoV) (SARS-CoV-2), UniProt P0DTD1)
Assay: Inhibition of SARS-CoV-2 M^pro enzyme activity (fluorescent substrate assay)
Assay type: biochemical
Details: IC50, inhibition of SARS-CoV-2 M^pro enzyme activity; values in nM
VALUE_KIND: IC50 (nM)
Numbers only, in nM.

In plain terms, C[C@@H](NC(=O)C(C)(C)Oc1ccc([Si](C)(C)C)cc1Cl)C(=O)N[C@H](Cc1ccccc1)C(=O)C(=O)NCc1ccccn1 has a documented IC50 of 27.9

###

Assay: in vivo
Conditions: male, Sprague-Dawley, rat, po, 10 mg/kg
Classification field: enter class 1 for bioavailability values not below 20%, class 0 for values below it.

Examples from the recorded data:
INSERT INTO results (smiles_record, answer_label) VALUES
  ('C[C@@H](NC(=O)[C@@H]1C[C@@H]2[C@H](C1)C2(F)F)C(=O)N[C@H](Cc1ccccc1)C(=O)C(=O)NCc1ccccn1', 'class 1'),
  ('C[C@@H](NC(=O)C1CCC(F)(F)CC1)C(=O)N[C@H](Cc1ccccc1)C(=O)C(=O)NCc1ccccn1', 'class 1'),
  ('C[C@@H](NC(=O)CC1CC(F)(F)C1)C(=O)N[C@H](Cc1ccccc1)C(=O)C(=O)NCc1nccs1', 'class 0');

Check the entry C[C@@H](NC(=O)N1CCC(F)(F)CC1)C(=O)N[C@H](Cc1ccccc1)C(=O)C(=O)NCc1ccccn1 : does bioavailability equal or exceed 20%? class 1

###

Experiment: in vivo
Conditions: male, Sprague-Dawley, rat, po, 10 mg/kg
VALUE_KIND: Cmax (ng/mL)
Numbers only, in ng/mL.

INSERT INTO measurements (compound, number) VALUES
  ('O=C(CNC(=O)C1CC12CCC(F)(F)CC2)N[C@H](Cc1ccccc1)C(=O)C(=O)NCc1ccccn1 (stereo partly shown)', 1590),
  ('O=C(CC1CCC(F)(F)CC1)NCC(=O)N[C@H](Cc1ccccc1)C(=O)C(=O)NCc1ccccn1', 1300),
  ('O=C(CNC(=O)C1CCC(F)(F)CC1)N[C@H](Cc1ccccc1)C(=O)C(=O)NCc1ccccn1', 1150),
  ('O=C(NCc1ccccn1)C(=O)[C@@H](Cc1ccccc1)NC(=O)[C@H]1COCCN1C(=O)C1CCC(F)(F)CC1', 1140),
  ('C[C@@H](NC(=O)CC1CC1(F)F)C(=O)N[C@H](Cc1ccccc1)C(=O)C(=O)NCc1cscn1 (stereo partly shown)', 441);

Below is a list of compounds. For each, state its recorded Cmax.
1. C[C@@H](NC(=O)C1CCC(F)(F)CC1)C(=O)N[C@H](Cc1ccccc1)C(=O)C(=O)NCc1ccccn1
2. O=C(NCc1ccccn1)C(=O)[C@@H](Cc1ccccc1)NC(=O)[C@H]1COCCN1C(=O)CC1CCC(F)(F)CC1

1: 1170; 2: 1040
